# EXPERIMENT NOTES: Metabolic stability in human liver microsomes after 30 mins by LC-MS/MS analysis
# Type: ADME, Microsome
READOUT: remaining at 0.5 h (%)

>  <STRUCTURE>
O=C(COc1cccc2[nH]cc(Cc3ccc4ccccc4c3)c12)NS(=O)(=O)c1cc(Cl)c(Cl)s1

>  <READOUT>
remaining at 0.5 h

>  <MEASURE UNIT>
%

>  <MEAS VALUE>
2

$$$$

###

# EXPERIMENT NOTES: Metabolic stability in dog liver microsomes at 5 uM after 30 mins by LC-MS/MS analysis
# Format: ADME, Canis lupus familiaris, Microsome
# DETAILS: read-out: Stability

>  <STRUCTURE>
Cc1cn(Cc2ccc(Cl)cc2Cl)c2c(/C=C/C(=O)NS(=O)(=O)c3cc(Cl)c(Cl)s3)cc(F)cc12

>  <remaining at 0.5 h, 5 µM (%)>
88.6

$$$$
